Assay: Aqueous kinetic solubility
Type: physicochemical
Settings: aqueous buffer, kinetic from dmso stock; phosphate-buffered saline pH 7.0, 2% DMSO, 2 h at 25 °C
The following compounds are listed with their measured solubility kinetic at 2 h values.
OUTCOME_MEASURE: solubility kinetic at 2 h

COMPOUND | RESULT
COC1C(=O)N(CCNc2ccnc3cc(Cl)ccc23)C1c1ccccc1 (centres unmarked) | > 200 µM
COC1C(=O)N(CCCCNc2ccnc3cc(Cl)ccc23)C1c1ccccc1 (centres unmarked) | > 200 µM

====

The following compounds are listed with their measured pIC50 values.
System: Trypanosoma brucei rhodesiense STIB900
Test: In vitro antitrypanosomal activity, alamarBlue assay
Assay type: cell-based
Details: Trypanosoma brucei; STIB900 bloodstream forms, 70 h + 2-4 h alamarBlue; read-out: T. b. brucie T. b. rhod IC50
pIC50: −log10 of the molar value.
OUTCOME_MEASURE: pIC50

COMPOUND | OUTCOME_MEASURE | NUMERIC_READOUT
COC1C(=O)N(CCNc2ccnc3cc(Cl)ccc23)C1c1ccccc1 (centres unmarked) | pIC50 | 4.27
COC1C(=O)N(CCCNc2ccnc3cc(Cl)ccc23)C1c1ccccc1 (centres unmarked) | pIC50 | 4.79
COC1C(=O)N(CCCCNc2ccnc3cc(Cl)ccc23)C1c1ccccc1 (centres unmarked) | pIC50 | 4.70
COc1cccc(C(NCCCC(C)Nc2cc(OC)cc3cccnc23)c2nnnn2C(C)(C)C)c1 (centres unmarked) | pIC50 | 4.85
COC1C(=O)N(CCNc2ccnc3cc(Cl)ccc23)C1c1ccc(Cl)c(Cl)c1 (centres unmarked) | pIC50 | 4.72

====

Experiment: In vitro cytotoxicity with L-6 cells, alamarBlue assay
Assay type: cell-based
Conditions: rat, L-6 cells (rat skeletal myoblasts); L6 cells, 70 h + 2 h alamarBlue; read-out: Cytotoxicity L6 Cell Lines IC50
The following compounds are listed with their measured log10(IC50 at 72 h) values.
OUTCOME_MEASURE: log10(IC50 at 72 h) (log10 of the value in µM)

COMPOUND | NUMERIC_READOUT
COC1C(=O)N(CCCCNc2ccnc3cc(Cl)ccc23)C1c1ccccc1 (centres unmarked) [Compound 4g] | 0.46
COC1C(=O)N(CCNc2ccnc3cc(Cl)ccc23)C1c1ccc(Cl)c(Cl)c1 (centres unmarked) [Compound 4d] | 0.93
COC1C(=O)N(CCCNc2ccnc3cc(Cl)ccc23)C1c1ccccc1 (centres unmarked) [Compound 4f] | 1.16
COC1C(=O)N(CCNc2ccnc3cc(Cl)ccc23)C1c1ccccc1 (centres unmarked) [Compound 4a] | 1.99
COc1cccc(C(NCCCC(C)Nc2cc(OC)cc3cccnc23)c2nnnn2C(C)(C)C)c1 (centres unmarked) [Compound 6b] | 1.88
